Biological target: TRKB extracellular domain (TRKB-ECD) (Homo sapiens, UniProt Q16620)
Construct: TRKB-ECD (marked in red, C^32-E^429, XP_016870240); His (C); made in house; host or cells: Pichia pastoris
Sequence (Q16620 32-429): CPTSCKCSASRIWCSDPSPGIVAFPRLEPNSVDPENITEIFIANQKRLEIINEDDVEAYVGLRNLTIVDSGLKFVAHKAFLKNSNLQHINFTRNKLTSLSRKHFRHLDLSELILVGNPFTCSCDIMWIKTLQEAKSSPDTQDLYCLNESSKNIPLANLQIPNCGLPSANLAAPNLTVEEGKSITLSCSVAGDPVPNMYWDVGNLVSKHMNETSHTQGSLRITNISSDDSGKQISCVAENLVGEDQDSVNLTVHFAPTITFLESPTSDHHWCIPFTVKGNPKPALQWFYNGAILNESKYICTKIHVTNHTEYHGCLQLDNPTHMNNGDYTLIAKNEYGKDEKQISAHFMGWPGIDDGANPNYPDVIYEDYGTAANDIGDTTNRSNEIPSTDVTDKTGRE
Assay: Tryptophan fluorescence quenching assay
Settings: Pichia pastoris-expressed TRKB-ECD, 0–1000 nM, excitation 295 nm, emission 330 nm, room temperature; read-out: KD (TRKB-ECD binding affinity)
endpointName: pKd
Please report pKd as the negative decimal logarithm of the molar concentration, giving only the number.

Could you tell me which pKd is on file for O=[N+]([O-])c1cccc2nc(/C=C/c3cc4ccccc4nc3N3CCOCC3)ccc12 [VB-037] ?
8.37

Could you tell me which pKd is on file for O=C(/C=C/c1ccccc1O)c1c(O)c2ccccc2oc1=O [ZN-015] ?
7.91

Could you tell me which pKd is on file for Cc1ccc(-c2cc(-c3ccncc3)nc3ccccc23)cc1 [VB-030, 2-(pyridin-4-yl)-4-(p-tolyl)quinoline] ?
7.96

Could you tell me which pKd is on file for O=c1cc(-c2ccccc2)oc2c(O)c(O)ccc12 [7,8-DHF, 7,8-dihydroxy flavone, reference compound] ?
7.87
